src = patent US20250074920A1

- Test system: EGFR(L858R, T790M)
- PROTOCOL DETAILS: KINOMEscan kinase binding assay
- TEST PARAMETERS: at 1 μM
TEST READOUT: % Ctrl (%)
API: value field is a number in %; no unit string.

// fetch EGFR(L858R, T790M) % Ctrl for Cc1cc2c([nH]1)/C=C1\C(=O)Nc3c(Cl)cc(cc31)-c1cn(C)nc1COC[C@@H](C)NC2=O
72

Shift focus to the following entry.
Query the reported % Ctrl for EGFR(L858R, T790M); item: C[C@@H]1COCc2nn(C)cc2-c2cc(Cl)c3c(c2)/C(=C/c2[nH]ccc2C(=O)N1)C(=O)N3
77

###

# Lookup of reported % Ctrl keyed by entry
- Tested on: ITK
- PROTOCOL DETAILS: KINOMEscan kinase binding assay
- TEST PARAMETERS: at 1 μM

Which % Ctrl is listed for Cc1cc2c([nH]1)/C=C1\C(=O)Nc3c(Cl)cc(cc31)-c1cn(C)nc1COC[C@@H](C)NC2=O ?
100%

New cases:
Name the reported % Ctrl value associated with the compound C[C@@H]1COCc2nn(C)cc2-c2cc(Cl)c3c(c2)/C(=C/c2[nH]ccc2C(=O)N1)C(=O)N3
99%

Same question for Cc1cc2c([nH]1)/C=C1\C(=O)Nc3c(Cl)cc(cc31)-c1cn(C)nc1COC[C@@H](C)N(C)C2=O please.
96%

Let us now turn to Cc1cc2c([nH]1)/C=C1\C(=O)Nc3ccc(cc31)-c1c(nn(C)c1C)COCCN(C)C2=O
80%

Again, but for Cc1cc2c([nH]1)/C=C1\C(=O)Nc3ccc(cc31)-c1c(nn(C)c1C)OCCCN(C)C2=O
89%

###

% Ctrl for assorted compounds
- Tested on: ABL1(T315I)-phosphorylated
- PROTOCOL DETAILS: KINOMEscan kinase binding assay
- TEST PARAMETERS: at 1 μM
Provide only the numeric value, understood in %.

Consider the following illustrative entries.
Name the reported % Ctrl value associated with the compound Cc1cc2c([nH]1)/C=C1\C(=O)Nc3ccc(cc31)-c1c(nn(C)c1C)COCCN(C)C2=O [Cpd. 2]
5.3

Again, but for C[C@@H]1COCc2nn(C)cc2-c2cc(Cl)c3c(c2)/C(=C/c2[nH]ccc2C(=O)N1)C(=O)N3 [Cpd. 4]
35

Follow-up item: Cc1cc2c([nH]1)/C=C1\C(=O)Nc3c(Cl)cc(cc31)-c1cn(C)nc1COC[C@@H](C)NC2=O [Cpd. 3]
69

Likewise for Cc1cc2c([nH]1)/C=C1\C(=O)Nc3c(Cl)cc(cc31)-c1cn(C)nc1COC[C@@H](C)N(C)C2=O [Cpd. 5] ?
70

***
Can you look up the measured % Ctrl of Cc1cc2c([nH]1)/C=C1\C(=O)Nc3ccc(cc31)-c1c(nn(C)c1C)OCCCN(C)C2=O [Cpd. 1] for me?
95

###

- Tested on: FLT3(D835V)
- PROTOCOL DETAILS: KINOMEscan kinase binding assay
- TEST PARAMETERS: at 1 μM
TEST READOUT: % Ctrl (%)
Give just the number in %; leave the unit off.

Which % Ctrl value belongs to C[C@@H]1COCc2nn(C)cc2-c2cc(Cl)c3c(c2)/C(=C/c2[nH]ccc2C(=O)N1)C(=O)N3 [Cpd. 4] ?
75

Others:
Given the compound Cc1cc2c([nH]1)/C=C1\C(=O)Nc3ccc(cc31)-c1c(nn(C)c1C)OCCCN(C)C2=O [Cpd. 1] , what is its reported % Ctrl?
61

Lookup Cc1cc2c([nH]1)/C=C1\C(=O)Nc3ccc(cc31)-c1c(nn(C)c1C)COCCN(C)C2=O [Cpd. 2]
7.9

Would you kindly repeat that for Cc1cc2c([nH]1)/C=C1\C(=O)Nc3c(Cl)cc(cc31)-c1cn(C)nc1COC[C@@H](C)NC2=O [Cpd. 3] ?
100

Entry Cc1cc2c([nH]1)/C=C1\C(=O)Nc3c(Cl)cc(cc31)-c1cn(C)nc1COC[C@@H](C)N(C)C2=O [Cpd. 5] please
89
